- System: U251 CNS
- ASSAY PROTOCOL: NCI tumour cell line growth inhibition, 48 h
So I've got a bunch of compounds here, and I need their TGI values.

Example results:
INSERT INTO assay_data (compound, result_value) VALUES
  ('CC(C)[C@H](NC(=O)[C@H](N)Cc1ccc(N(CCCl)CCCl)cc1)C(=O)O', '> 100 µM'),
  ('N#Cc1c(-c2ccc(Cl)cc2)[nH]c(=O)n(C2OC(CO)C(O)C(O)C2O)c1=O (stereo not given)', '> 100 µM'),
  ('COc1cc(-c2cc(=O)c3c(O)c(CC=C(C)C)c(O)cc3o2)ccc1O', '> 50 µM'),
  ('CCOC(=O)C1(C(=O)OCC)OC(C)=NC1(C(=O)OC)C(=O)OC', '> 100 µM'),
  ('CCOC(=O)c1cc2/c(=C\c3ccc(N(C)C)cc3)c3ccccc3n2[n+]1C', '11.8 µM'),
  ('O=C1C2=C(CC3=C(C2)CS(=O)(=O)C3)C(=O)C2=C1CC1=C(C2)CS(=O)(=O)C1', '31 µM'),
  ('CC(=O)NC1(c2cc3ccccc3s2)CCCCCC1', '> 100 µM'),
  ('C=CC(=O)Nc1cc(C)ccc1Nc1nc(Nc2cc(OC)ncc2C)ncc1C(F)(F)F', '> 100 µM'),
  ('COC(=O)C(C(=O)OC)C1CCCC(=O)C1 (stereo not given)', '> 100 µM');

Exercise: Give the measured TGI of COC(=O)C(Cc1c[nH]c2ccccc12)NC(=O)c1ccc(-c2ccc(Cl)cc2Cl)o1 (stereo not given) .
Solution: > 100 µM

###

- System: RXF 393 renal
- ASSAY PROTOCOL: NCI tumour cell line growth inhibition, 48 h
ENDPOINT LABEL: TGI

INSERT INTO measurements (compound, experimental_target, result_value) VALUES
  ('Cc1c2c(c(O)c3c(O)cccc13)C(=O)C1(O)C(O)=C(C(=O)NCNc3ccc(C(N)=O)cn3)C(=O)C(N(C)C)C1C2 (centres undefined)', 'RXF 393 renal', '20.1 µM'),
  ('COc1ccccc1C1ON=C(c2ccc([N+](=O)[O-])cc2)N1C12CC3CC(CC(C3)C1)C2 (centres undefined)', 'RXF 393 renal', '60.4 µM'),
  ('Cc1cc(Cc2cc(C)c(NC(=O)C(=O)C3CCC4=C(SC5C=CC=CC5N4)C3=O)c(C(C)C)c2)cc(C(C)C)c1NC(=O)C(=O)C1CCC2=C(SC3C=CC=CC3N2)C1=O (centres undefined)', 'RXF 393 renal', '> 100 µM');

Continue with the compound presented below.
Exercise: # query: TGI of entry O=c1c(Br)cc2nc3ccccc3sc-2c1Br
Solution: > 100 µM

###

What GI50 was measured for each of the following?
- Tested on: SK-MEL-2 melanoma
- ASSAY PROTOCOL: NCI tumour cell line growth inhibition, 48 h

Examples with answers:
INSERT INTO assay_data (structure, result_value) VALUES
  ('O=Nc1ccc(NO)c2ccccc12', '18.3 µM'),
  ('Cc1nc2ccccc2c(/C=C/c2ccc(Cl)cc2)c1C(=O)/C=C/c1ccc(C(F)(F)F)cc1', '0.627 µM'),
  ('CC(C)([NH-])CO.CC(C)([NH-])CO.[Cl][Cd][Cl]', '15.6 µM'),
  ('CC(=O)OC(C)(C)/C(C)=C/C(=O)O[C@H]1C(=O)O[C@@H]2C[C@H]3[C@H](C)C(=O)C(O[C@@H]4O[C@H](CO)[C@@H](O)[C@H](O)[C@H]4O)=C[C@]3(C)[C@H]3[C@@H](O)[C@H](O)[C@@]4(C(=O)O)OC[C@]32[C@@H]14', '> 100 µM'),
  ('Nc1c(C(=O)Nc2cccc(F)c2)sc2nc3c(cc12)C(=O)CCC3', '0.492 µM');

Attention now shifts to the item below.
Exercise: Please look up its GI50: C#CCSc1cc(Cl)c(C)cc1S(=O)(=O)Nc1nc2ccccc2o1
Solution: 21.6 µM

###

Would you mind telling me the reported GI50 of each entry?
- Test system: SNB-19 CNS
- ASSAY PROTOCOL: NCI tumour cell line growth inhibition, 48 h

INSERT INTO assay_data (molecule, result_value) VALUES
  ('O=C(Nc1ccncc1)C(=O)c1cn(S(=O)(=O)c2ccc(Cl)cc2)c2ccccc12', '5.94 µM'),
  ('c1ccc(CN2COc3c(ccc4c3OCN(Cc3ccccc3)C4)C2)cc1', '1 µM'),
  ('C[As](C)SCC(COC(=O)C(Cl)c1ccccc1)OC(=O)C(Cl)c1ccccc1 (stereo not given)', '14.5 µM'),
  ('C#CCSc1cc(Cl)c(C)cc1S(=O)(=O)Nc1nc2ccccc2o1', '44.5 µM'),
  ('CS(=O)(=O)CCc1cccc(C(=O)c2cnn(-c3ccc(F)cc3)c2N)c1', '> 25 µM'),
  ('N=c1ccn(O)cc1/C=C1/C(=O)Nc2ccccc21', '> 100 µM');

Each of the following entries comes with a recorded value; kindly state GI50 for each.
1. O=C(Nc1ccc(-n2ccc3c(NC(=O)c4ccccc4)ncnc32)cc1)Nc1ccc(Cl)c(Cl)c1
2. O=Nc1ccc(NO)c2ccccc12
3. C[C@@]12CCC[C@@](C)(C(=O)O)C1CC[C@]13C[C@@](O)(CO)[C@](O)(CCC12)C3 (stereo not given in full)
4. CC(C)([NH-])CO.CC(C)([NH-])CO.[Cl][Cd][Cl]

Solution:
["4.58 µM", "15.1 µM", "> 100 µM", "> 100 µM"]

###

- Test system: SN12C renal
- ASSAY PROTOCOL: NCI tumour cell line growth inhibition, 48 h
Please provide measured TGI for the entries that follow.
One number for each entry, in µM.

INSERT INTO measurements (structure, measurement_units, result_value) VALUES
  ('NCCCC[C@H](N)C(=O)Nc1ccc(-c2nc3ccccc3s2)cc1', 'µM', 74.3);

Exercise: I would be grateful if you could share the reported TGI for Oc1ccc(-c2nc3ccccc3s2)cc1CN(Cc1ccccn1)Cc1ccccn1 .
Solution: 14.4

###

I'd be grateful if you could share measured TGI for these entries.
- System: A498 renal
- ASSAY PROTOCOL: NCI tumour cell line growth inhibition, 48 h

Sample answers from the record:
INSERT INTO results (compound, result_value) VALUES
  ('O=c1ncc(F)cn1C1OC(CO)C(O)C1O (centres undefined)', '> 100 µM'),
  ('O=c1cc(-c2cccc3c2Sc2ccccc2S3)oc(N2CCOCC2)c1', '3.79 µM');

Give TGI for all compounds that follow.
1. C/C1=C/C(=O)O[C@@H]2C[C@@H](CC[C@H](C)/C=C\C=C\CC1)O[C@@](O)([C@@H]1CSC(=O)N1)C2
2. N#Cc1c(-c2ccc(Cl)cc2)[nH]c(=O)n(C2OC(CO)C(O)C(O)C2O)c1=O (centres undefined)
3. CN(C)C(c1ccccc1)C1COC2Cc3ccccc3C1O2 (centres undefined)
4. O=C(Nc1ccc2[nH]c(C(=O)N3CC(CCl)c4c3cc([N+](=O)[O-])c3ccccc43)cc2c1)Nc1ccc2[nH]c(C(=O)N3CC(CCl)c4c3cc([N+](=O)[O-])c3ccccc43)cc2c1 (centres undefined)

Solution:
1. 0.358 µM
2. > 100 µM
3. > 100 µM
4. > 100 µM

Would you mind listing TGI for each of the following compounds?
1. CC(C)NC(=O)N(Nc1ccccc1)C(C)(C)C
2. CCOc1ccc(N/C(=C(/C(Cl)=C(/Cl)N2CCCCC2)[N+](=O)[O-])n2nnc3ccccc32)cc1

Solution:
1: > 100 µM; 2: 34.9 µM

Exercise: What value of measured TGI is listed for CCC(=O)Nc1ccc(NC(C#N)c2cccc(Oc3ccccc3)c2)cc1 (centres undefined) ?
Solution: > 100 µM

###

- System: HCT-15 colon
- ASSAY PROTOCOL: NCI tumour cell line growth inhibition, 48 h
ENDPOINT LABEL: TGI

Previously resolved entries follow.
INSERT INTO results (molecule, endpoint_label, result_value) VALUES
  ('O=c1ccn(COC(COCc2ccccc2)COCc2ccccc2)c(=O)[nH]1', 'TGI', '> 100 µM'),
  ('O=C(c1ccccc1)C1OC1c1ccc([N+](=O)[O-])cc1 (stereo unspecified)', 'TGI', '> 100 µM'),
  ('C/C1=C/C(=O)O[C@@H]2C[C@@H](CC[C@H](C)/C=C\C=C\CC1)O[C@@](O)([C@@H]1CSC(=O)N1)C2', 'TGI', '> 10 µM'),
  ('CCOc1ccc(N/C(=C(/C(Cl)=C(/Cl)N2CCCCC2)[N+](=O)[O-])n2nnc3ccccc32)cc1', 'TGI', '29 µM'),
  ('COc1cc(/C=N/n2c(-c3ccccc3)nn(C(C)=O)c2=O)cc(OC)c1OC', 'TGI', '> 100 µM');

Parameter requested: TGI. Apply to each item below.
1. COc1cccc(NC(=O)c2sc3nc(C)c(C(O)c4ccccc4)cc3c2N)c1 (stereo unspecified)
2. CC(C)=CC(Cc1ccccc1)S(=O)(=O)c1nc2ccccc2s1 (stereo unspecified)
3. O=C1C2=C(CC3=C(C2)CS(=O)(=O)C3)C(=O)C2=C1CC1=C(C2)CS(=O)(=O)C1
4. S=C(Nc1ccc(-c2nc3ccccc3[nH]2)cc1)Nc1ccc(-c2nc3ccccc3[nH]2)cc1

Solution:
["12.4 µM", "49.5 µM", "> 100 µM", "> 100 µM"]

// each listed molecule needs a value for TGI
1. COc1ccc(/C=C2\CCS(=O)(=O)c3ccccc3C2=O)cc1
2. COc1cc(NCCCN=C(N)NC(N)=NC(C)C)c2ncccc2c1
3. Cc1cccc(C(C)(C)C)c1NC(=O)CC1C(=O)Nc2ccccc2S1(=O)=O (stereo unspecified)
4. C[C@]12CC/C(=N\O)C=C1CC[C@@H]1C2CC[C@@]2(C)C1CC[C@@H]2OC1CCCCO1 (stereo partly specified)
5. Cc1cc(N2CCOCC2)nc(N[C@@H]2CCC[C@H](Nc3ccnc4cc(Cl)ccc34)C2)n1

Solution:
1: 43.1 µM; 2: > 100 µM; 3: 16.3 µM; 4: 43.2 µM; 5: 3.54 µM

Give one value of TGI per listed molecule.
1. Oc1ccc(C(c2ccc(O)cc2)c2ccc(O)cc2)cc1
2. C/C(CC(O)(/C=N/O)c1ccccc1)=N/O (stereo unspecified)
3. CSc1nc(NC2OC(COC(C)=O)C(OC(C)=O)C(OC(C)=O)C2OC(C)=O)c2c(n1)OCC2=O (stereo unspecified)
4. O=C(O)CCSCc1ccccc1
5. O=C1C=CC(=Nc2cc(Br)c(O)c(Br)c2)C=C1
6. C[C@@]12CCC[C@@](C)(C(=O)O)C1CC[C@]13C[C@@](O)(CO)[C@](O)(CCC12)C3 (stereo partly specified)
7. O=C(Cc1ccc(F)c(F)c1)Nc1cc(C2(C(F)(F)F)CC2)nn1Cc1ccccc1

Solution:
55.3 µM
> 100 µM
> 100 µM
> 100 µM
43.8 µM
> 100 µM
> 15 µM
